All figures here come from paper PMC8222333.

# Tested on: d-enCas12a (Acidaminococcus sp., UniProt U2UMQ6 1-1307, E174R;S542R;K548R;D908A;E993A;D1235A)
# Assay explanation: Spec-seq (native PAGE EMSA with sequencing of bound and unbound); 25 mM Tris-HCl pH 7.4, 150 mM KCl, 5 mM MgCl2, 10% glycerol, 1 mM DTT, 40 ng/uL salmon sperm DNA; 400 nM Cas12a, 480 nM crRNA, 50 nM library, 37 C 1 h; native PAGE at room temperature; high values mean tight binding;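 further: relative affinity from the bound to unbound sequence frequency ratio in Spec-seq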
# Condition set: protein: recombinant
Test readout: binding signal (lnKA)
Express the result in lnKA but write the number alone.

Briefly, binding signal measured for CCCG (dsDNA) DNA 1: GCTATCTAGTGCTCAGTACGCACTGCCCGAGGAAACTTCTGGCAGGACCAGGTCATGAGATCGGAAGAGCACACGTCTGAACTCCAGTCA DNA 2: TGACTGGAGTTCAGACGTGTGCTCTTCCGATCTCATGACCTGGTCCTGCCAGAAGTTTCCTCGGGCAGTGCGTACTGAGCACTAGATAGC RNA: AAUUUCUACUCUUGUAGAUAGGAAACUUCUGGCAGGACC : -4.37

Data point: ACGG (dsDNA) DNA 1: GCTATCTAGTGCTCAGTACGCACTGACGGAGGAAACTTCTGGCAGGACCAGGTCATGAGATCGGAAGAGCACACGTCTGAACTCCAGTCA DNA 2: TGACTGGAGTTCAGACGTGTGCTCTTCCGATCTCATGACCTGGTCCTGCCAGAAGTTTCCTCCGTCAGTGCGTACTGAGCACTAGATAGC RNA: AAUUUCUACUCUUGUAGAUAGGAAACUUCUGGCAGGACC ; binding signal = -6.05

Looking up GCGT (dsDNA) DNA 1: GCTATCTAGTGCTCAGTACGCACTGGCGTAGGAAACTTCTGGCAGGACCAGGTCATGAGATCGGAAGAGCACACGTCTGAACTCCAGTCA DNA 2: TGACTGGAGTTCAGACGTGTGCTCTTCCGATCTCATGACCTGGTCCTGCCAGAAGTTTCCTACGCCAGTGCGTACTGAGCACTAGATAGC RNA: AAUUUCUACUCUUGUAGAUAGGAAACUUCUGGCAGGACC , I found its binding signal recorded as -5.91

binding signal reported for this binder GTCG (dsDNA) DNA 1: GCTATCTAGTGCTCAGTACGCACTGGTCGAGGAAACTTCTGGCAGGACCAGGTCATGAGATCGGAAGAGCACACGTCTGAACTCCAGTCA DNA 2: TGACTGGAGTTCAGACGTGTGCTCTTCCGATCTCATGACCTGGTCCTGCCAGAAGTTTCCTCGACCAGTGCGTACTGAGCACTAGATAGC RNA: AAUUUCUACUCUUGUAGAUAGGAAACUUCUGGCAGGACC : -4.39

Entry CTAG (dsDNA) DNA 1: GCTATCTAGTGCTCAGTACGCACTGCTAGAGGAAACTTCTGGCAGGACCAGGTCATGAGATCGGAAGAGCACACGTCTGAACTCCAGTCA DNA 2: TGACTGGAGTTCAGACGTGTGCTCTTCCGATCTCATGACCTGGTCCTGCCAGAAGTTTCCTCTAGCAGTGCGTACTGAGCACTAGATAGC RNA: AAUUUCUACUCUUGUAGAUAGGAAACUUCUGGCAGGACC — recorded binding signal = -5.78
